System: CAKI-1
Assay: Cytotoxicity against human Caki1 cells
Type: functional
Output y for records whose GI50 is lower than 0.4 µM, n for records at or above 0.4 µM.

Determine if COc1cc(/C=C/c2cc(O)c3c(CC=C(C)C)c[nH]c3c2)cc2c1O[C@]1(C)CC[C@@H](O)C(C)(C)[C@H]1C2 shows GI50 strictly lower than 0.4 µM.
y

Quick check: GI50 of COc1cc(/C=C/c2cc(O)c3c(c2)C[C@@H]2C(C)(C)[C@H](O)CC[C@@]2(C)O3)cc2c1ccn2C under 0.4 µM?
n

Lab log: compare recorded GI50 with 0.4 µM; is it strictly lower for COc1cc(/C=C/c2cc(O)c3cc(CC=C(C)C)[nH]c3c2)cc2c1O[C@]1(C)CC[C@@H](O)C(C)(C)[C@H]1C2 ?
n

GI50 under 0.4 µM? Item: COc1cc(/C=C/c2cc(O)c3ccn(C)c3c2)cc2c1O[C@]1(C)CC[C@@H](O)C(C)(C)[C@H]1C2
n

Please let me know if COc1cc(/C=C/c2cc(OC)c3cc[nH]c3c2)cc2c1O[C@]1(C)CC[C@@H](O)C(C)(C)[C@H]1C2 shows GI50 below 0.4 µM.
y

Input COc1cc(/C=C/c2cc(O)c3c(C/C=C(\C)CCC=C(C)C)c[nH]c3c2)cc2c1O[C@]1(C)CC[C@@H](O)C(C)(C)[C@H]1C2 ; condition: GI50 strictly below 0.4 µM. Does it hold?
n

Please check: GI50 for CC1(C)[C@H](O)CC[C@@]2(C)Oc3c(O)cc(/C=C/c4cc(O)c5cc[nH]c5c4)cc3C[C@H]12 , strictly under 0.4 µM or not?
y
